Listed below: growth values for each entry.
- System: Ruminococcus gnavus DSM 108212
- ASSAY_COMMENT: growth (OD595) fold change vs plate DMSO controls (fold change (ratio)); higher = more growth
- CONDITION: incubation time: 27 h, anaerobic, 37 °C
Counter-ions that a name gives are not always drawn.

# COMPOUND, growth
rows = [
    ("CC(C)(C)NC[C@H](O)COc1ccccc1C1CCCC1 [Penbutolol sulfate] (20 µM)", 0.952),
    ("CNCCC=C1c2ccccc2CCc2ccccc21 [Nortriptyline hydrochloride] (20 µM)", 1.28),
    ("CCOC1O[C@H]([C@@H](COCc2ccccc2)OCc2ccccc2)[C@H](OCc2ccccc2)[C@H]1O (some centres not stated) [Tribenoside] (20 µM)", 0.972),
    ("O=C(COc1ccc(Cl)cc1)N1CCN(Cc2ccc3c(c2)OCO3)CC1 [Fipexide hydrochloride] (20 µM)", 0.87),
    ("C[C@H]1O[C@H](O[C@H]2[C@H](O)[C@@H](O)[C@@H](O[C@@H]([C@H](O)[C@@H](O)C=O)[C@H](O)CO)O[C@@H]2CO)[C@H](O)[C@@H](O)[C@@H]1N[C@H]1C=C(CO)[C@@H](O)[C@H](O)[C@H]1O [Acarbose] (20 µM)", 1.05),
    ("CCN(Cc1ccncc1)C(=O)C(CO)c1ccccc1 (configuration not stated) [Tropicamide] (20 µM)", 0.969),
    ("CN(C)c1cc(NC(=O)CNC(C)(C)C)c(O)c2c1C[C@H]1C[C@H]3[C@H](N(C)C)C(=O)C(C(N)=O)=C(O)[C@@]3(O)C(=O)C1=C2O [Tigecycline] (20 µM)", 1.19),
]

* * *

Listed below: growth values for each entry.
- Test system: Klebsiella aerogenes DSM 30053
- ASSAY_COMMENT: growth (OD595) fold change vs plate DMSO controls (fold change (ratio)); higher = more growth
- CONDITION: incubation time: 27 h, anaerobic, 37 °C
Structures can show the parent of a compound that is named as a salt.
OBSERVABLE: growth

# COMPOUND, RECORDED_MEASUREMENT
rows = [
    ("CCCCCOC(=O)Nc1nc(=O)n([C@@H]2O[C@H](C)[C@@H](O)[C@H]2O)cc1F [Capecitabine] (20 µM)", 1.07),
    ("CCOc1ccc(NC(C)=O)cc1 [Phenacetin] (20 µM)", 1.01),
    ("CN(C)CCN1C(=O)c2ccccc2N(C)c2ccccc21 [Dibenzepine hydrochloride] (20 µM)", 0.972),
    ("COCCc1ccc(OCC(O)CNC(C)C)cc1 (stereo not drawn) [Metoprolol-(+)-tartrate salt] (20 µM)", 1.03),
    ("CC(C)(C)C(=O)OCOC(=O)[C@@H]1N2C(=O)[C@@H](/N=C/N3CCCCCC3)[C@H]2SC1(C)C [Pivmecillinam hydrochloride] (20 µM)", 0.909),
    ("Cc1ncc(C[n+]2csc(CCO)c2C)c(N)n1 [Thiamine hydrochloride] (20 µM)", 1.01),
    ("N#C/C(=C1/SCC(c2ccccc2Cl)S1)n1ccnc1 (stereo not drawn) [Lanoconazole] (20 µM)", 1),
    ("CCc1oc2ccccc2c1C(=O)c1cc(I)c(O)c(I)c1 [Benziodarone] (20 µM)", 1.01),
]

* * *

- Test system: Klebsiella aerogenes DSM 30053
- ASSAY_COMMENT: fold change of Putrescine concentration vs plate DMSO controls (fold change (ratio)); higher = more amine produced, active = hit call of the paper (significant change in both replicates, either direction);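 for the amine columns active = adjusted P below 0.05 in both replicates with a change the same way and a mean fold change under 0.8 or over 1.25; inactive = the rest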
- CONDITION: incubation time: 27 h, anaerobic, 37 °C
Where a name gives a salt, the structure may show the parent alone.
Labels: Y = active, N = inactive

# COMPOUND, CLASS_NAME
measured = [
    ("Cn1c(=O)c2c(ncn2CC(=O)O)n(C)c1=O [Acefylline] (20 µM)", "N"),
    ("CN1CCN(C2=Nc3cc(Cl)ccc3Nc3ccccc32)CC1 [Clozapine] (20 µM)", "N"),
    ("Nc1ccc(S(=O)(=O)Nc2ccc(Cl)nn2)cc1 [Sulfachloropyridazine] (20 µM)", "N"),
    ("Cc1cc(C2CCCCC2)n(O)c(=O)c1 [Ciclopirox ethanolamine] (20 µM)", "N"),
    ("CC1=C(C(=O)O)N2C(=O)[C@@H](NC(=O)[C@H](N)c3ccccc3)[C@H]2SC1 [Cephalexin monohydrate] (20 µM)", "N"),
    ("Nc1cc(-c2ccncc2)c[nH]c1=O [Amrinone] (20 µM)", "N"),
    ("NC1CCN(c2nc3c(cc2F)c(=O)c(C(=O)O)cn3-c2ccc(F)cc2F)C1 (stereo not drawn) [Tosufloxacin hydrochloride] (20 µM)", "Y"),
    ("CN1CCN(c2c(F)cc3c(=O)c(C(=O)O)cn(CCF)c3c2F)CC1 [Fleroxacin] (20 µM)", "N"),
]

* * *

- System: Clostridium sporogenes DSM 1664
- ASSAY_COMMENT: fold change of Tryptamine concentration vs plate DMSO controls (fold change (ratio)); higher = more amine produced, active = hit call of the paper (significant change in both replicates, either direction)
- CONDITION: incubation time: 27 h, anaerobic, 37 °C
Where a name gives a salt, the structure may show the parent alone.

# COMPOUND, SYSTEM, fold change of Tryptamine concentration
data = [
    ("N=C(N)NC(=O)c1nc(Cl)c(N)nc1N [Amiloride hydrochloride dihydrate] (20 µM)", "Clostridium sporogenes DSM 1664", 0.98),
    ("CCCCC(=O)O[C@H]1CC[C@H]2[C@@H]3CCc4cc(O)ccc4[C@H]3CC[C@]12C [Estradiol Valerate] (20 µM)", "Clostridium sporogenes DSM 1664", 0.24),
    ("O=C1NCCN1CCN1CCC(c2cn(-c3ccc(F)cc3)c3ccc(Cl)cc23)CC1 [Sertindole] (20 µM)", "Clostridium sporogenes DSM 1664", 0.952),
    ("C[C@@H]1CCC[C@H](C)N1NC(=O)c1ccc(Cl)c(S(N)(=O)=O)c1 [Clopamide] (20 µM)", "Clostridium sporogenes DSM 1664", 1.07),
    ("O=C(CCCN1CCC(O)(c2ccc(Cl)cc2)CC1)c1ccc(F)cc1 [Haloperidol] (20 µM)", "Clostridium sporogenes DSM 1664", 1.05),
    ("CCOc1nc2cccc(C(=O)OCc3oc(=O)oc3C)c2n1Cc1ccc(-c2ccccc2-c2noc(=O)[nH]2)cc1 [Azilsartan medoxomil] (20 µM)", "Clostridium sporogenes DSM 1664", 1.01),
    ("CS(=O)(=O)c1ccc([C@@H](O)[C@@H](CF)NC(=O)C(Cl)Cl)cc1 [Florfenicol] (20 µM)", "Clostridium sporogenes DSM 1664", 0.0346),
    ("COc1cc(-c2ccc(=O)[nH]n2)ccc1OC(F)F [Zardaverine] (20 µM)", "Clostridium sporogenes DSM 1664", 0.971),
    ("C#C[C@]1(O)CC[C@H]2[C@@H]3CCC4=CCCC[C@@H]4[C@H]3CC[C@@]21C [Lynestrenol] (20 µM)", "Clostridium sporogenes DSM 1664", 0.947),
    ("CC(C)C(=O)Nc1ccc([N+](=O)[O-])c(C(F)(F)F)c1 [Flutamide] (20 µM)", "Clostridium sporogenes DSM 1664", 0.961),
    ("CN1CC2c3ccccc3Oc3ccc(Cl)cc3C2C1 (stereo not given) [Asenapine maleate] (20 µM)", "Clostridium sporogenes DSM 1664", 1.05),
    ("CC(=O)OCC(=O)[C@@]12OC3(CCCC3)O[C@@H]1C[C@H]1[C@@H]3CCC4=CC(=O)C=C[C@]4(C)[C@@]3(F)[C@@H](O)C[C@@]12C [Amcinonide] (20 µM)", "Clostridium sporogenes DSM 1664", 0.964),
    ("Cc1ccc2c([nH]c(=O)c3c(=O)cc(C(=O)OCCC(C)C)oc32)c1C [Repirinast] (20 µM)", "Clostridium sporogenes DSM 1664", 1.08),
    ("O=C1[C@@H]2[C@H]3CC[C@H](C3)[C@@H]2C(=O)N1CCCCN1CCN(c2ncccn2)CC1 [Tandospirone] (20 µM)", "Clostridium sporogenes DSM 1664", 0.992),
    ("CC(=O)CCCCn1c(=O)c2c(ncn2C)n(C)c1=O [Pentoxifylline] (20 µM)", "Clostridium sporogenes DSM 1664", 1.03),
]

* * *

- System: Klebsiella aerogenes DSM 30053
- ASSAY_COMMENT: fold change of Putrescine concentration vs plate DMSO controls (fold change (ratio)); higher = more amine produced, active = hit call of the paper (significant change in both replicates, either direction)
- CONDITION: incubation time: 27 h, anaerobic, 37 °C
Structures can show the parent of a compound that is named as a salt.

# COMPOUND, SYSTEM, fold change of Putrescine concentration
records = [
    ("CC(COc1ccccc1)NN (configuration not stated) [Phenoxypropazine dihydrochloride] (20 µM)", "Klebsiella aerogenes DSM 30053", 1.01),
    ("CN(C)CCC=C1c2ccccc2C=Cc2ccccc21 [Cyclobenzaprine hydrochloride] (20 µM)", "Klebsiella aerogenes DSM 30053", 1),
    ("CCC(=O)OCC(=O)[C@@]1(OC(=O)CC)[C@H](C)C[C@H]2[C@H]3[C@H]([C@@H](O)C[C@@]21C)[C@@]1(C)C=CC(=O)C=C1C[C@H]3Cl [Alclometasone dipropionate] (20 µM)", "Klebsiella aerogenes DSM 30053", 1.02),
    ("O=C1C(CC[S+]([O-])c2ccccc2)C(=O)N(c2ccccc2)N1c1ccccc1 (configuration not stated) [Sulfinpyrazone] (20 µM)", "Klebsiella aerogenes DSM 30053", 1.04),
    ("CC(C)/N=c1\\cc2n(-c3ccc(Cl)cc3)c3ccccc3nc-2cc1Nc1ccc(Cl)cc1 [Clofazimine] (20 µM)", "Klebsiella aerogenes DSM 30053", 1.04),
    ("CC(C)(C)C(O)/C=C/c1ccc2c(c1)OCO2 (configuration not stated) [Stiripentol] (20 µM)", "Klebsiella aerogenes DSM 30053", 1.01),
    ("C/C(O)=C(\\C#N)C(=O)Nc1ccc(C(F)(F)F)cc1 [Teriflunomide] (20 µM)", "Klebsiella aerogenes DSM 30053", 1.02),
    ("CCOC(=O)C1=C(COCCN)NC(C)=C(C(=O)OC)C1c1ccccc1Cl (configuration not stated) [Amlodipine] (20 µM)", "Klebsiella aerogenes DSM 30053", 1.03),
    ("C=CC1=C(C(=O)O)N2C(=O)[C@@H](NC(=O)/C(=N\\OCC(=O)O)c3csc(N)n3)[C@H]2SC1 [Cefixime] (20 µM)", "Klebsiella aerogenes DSM 30053", 1.03),
    ("CC[C@]12CCCN3CCc4c(n(c5ccccc45)[C@@](O)(C(=O)OC)C1)[C@@H]32 [Vincamine] (20 µM)", "Klebsiella aerogenes DSM 30053", 1),
    ("CCN(CC)C(=O)C1(c2ccccc2)CC1CN (configuration not stated) [Milnacipran hydrochloride] (20 µM)", "Klebsiella aerogenes DSM 30053", 0.958),
    ("C[C@@H]1[C@H](O)[C@@H](C)/C=C/C=C/C=C/C=C/C=C/C=C/C=C/[C@H](O[C@@H]2O[C@H](C)[C@@H](O)[C@H](N)[C@@H]2O)C[C@@H]2O[C@](O)(C[C@@H](O)C[C@@H](O)[C@H](O)CC[C@@H](O)C[C@@H](O)CC(=O)O[C@H]1C)C[C@H](O)[C@H]2C(=O)O [Amphotericin B] (20 µM)", "Klebsiella aerogenes DSM 30053", 0.957),
    ("CC(C)(S)C(N)C(=O)O (racemic) [D,L-Penicillamine] (20 µM)", "Klebsiella aerogenes DSM 30053", 0.954),
    ("COc1cc(C(=O)NC2CCCNC2)cc(OC)c1OC (configuration not stated) [Troxipide] (20 µM)", "Klebsiella aerogenes DSM 30053", 0.983),
    ("C[C@H]1O[C@@H](O[C@H]2[C@@H](O)C[C@H](O[C@H]3[C@@H](O)C[C@H](O[C@H]4CC[C@@]5(C)[C@H](CC[C@@H]6[C@@H]5C[C@@H](O)[C@]5(C)[C@@H](C7=CC(=O)OC7)CC[C@]65O)C4)O[C@@H]3C)O[C@@H]2C)C[C@H](O)[C@@H]1O [Digoxin] (20 µM)", "Klebsiella aerogenes DSM 30053", 0.999),
    ("N=C(N)NC(=N)NCCc1ccccc1 [Phenformin hydrochloride] (20 µM)", "Klebsiella aerogenes DSM 30053", 1),
    ("C[C@]12CC[C@H]3C(=CCc4cc(O)ccc43)[C@@H]1CCC2=O [Equilin] (20 µM)", "Klebsiella aerogenes DSM 30053", 0.996),
    ("c1ccc(CC2=NCCN2)cc1 [Tolazoline hydrochloride] (20 µM)", "Klebsiella aerogenes DSM 30053", 1.02),
    ("CN[C@@H]1[C@@H](O)[C@@H](O[C@@H]2[C@@H](O)[C@H](O[C@H]3OC(CN)=CC[C@H]3N)[C@@H](N)C[C@H]2N)OC[C@]1(C)O [Sisomicin sulfate] (20 µM)", "Klebsiella aerogenes DSM 30053", 0.998),
    ("O=C1c2c(O)cccc2Cc2cccc(O)c21 [Anthralin] (20 µM)", "Klebsiella aerogenes DSM 30053", 1.01),
    ("CC(C)(C)NC(=O)[C@H]1CC[C@H]2[C@@H]3CC[C@H]4NC(=O)C=C[C@]4(C)[C@H]3CC[C@]12C [Finasteride] (20 µM)", "Klebsiella aerogenes DSM 30053", 0.982),
    ("CCCNC(C)(C)COC(=O)c1ccccc1 [Meprylcaine hydrochloride] (20 µM)", "Klebsiella aerogenes DSM 30053", 1),
    ("CO[C@@H]1[C@@H](O[C@@H]2O[C@H](C)[C@@H](O[C@H]3C[C@@](C)(O)[C@@H](O)[C@H](C)O3)[C@H](N(C)C)[C@H]2O)[C@@H](CC=O)C[C@@H](C)[C@@H](O[C@H]2CC[C@H](N(C)C)[C@@H](C)O2)/C=C/C=C/C[C@@H](C)OC(=O)C[C@H]1OC(C)=O [Acetyl spiramycin] (20 µM)", "Klebsiella aerogenes DSM 30053", 1.03),
    ("CSc1ccc2c(c1)N(CCC1CCCCN1C)c1ccccc1S2 (configuration not stated) [Thioridazine hydrochloride] (20 µM)", "Klebsiella aerogenes DSM 30053", 0.948),
    ("Nc1nc2n[nH]nc2c(=O)[nH]1 [Azaguanine-8] (20 µM)", "Klebsiella aerogenes DSM 30053", 0.968),
    ("Oc1ccc(C2CNCCc3c2cc(O)c(O)c3Cl)cc1 (configuration not stated) [Fenoldopam] (20 µM)", "Klebsiella aerogenes DSM 30053", 0.988),
    ("CC1(C)O[C@@H]2C[C@H]3[C@@H]4C[C@H](F)C5=CC(=O)CC[C@]5(C)[C@H]4[C@@H](O)C[C@]3(C)[C@]2(C(=O)CO)O1 [Flurandrenolide] (20 µM)", "Klebsiella aerogenes DSM 30053", 0.966),
]
